System: HTT mRNA
Assay: Splicing RT-qPCR assay, canonical (CJ) and alternative (AJ) junction mRNA, K562 cells
Assay type: cell-based
Conditions: Homo sapiens, K562.3 cells, 24 hours, read-out: HTT AJ (AC50, increase in AJ mRNA)
Parameter: AC50

Here is how some molecules turned out for AC50.
| Molecule | Parameter | Test value |
| --- | --- | --- |
| C#CCN[C@@H]1CCN(c2ccc(C(=O)Nc3cc(F)c4nc(C)cn4c3)c3nn(C)cc23)C1 | AC50 | 1 to 10 µM |
| Cc1cn2cc(NC(=O)c3ccc(N4CCC(NC5CC56CC6)CC4)c4cn(C)nc34)cc(F)c2n1 (stereo not drawn) | AC50 | 1 to 10 µM |
| Cc1cn2cc(NC(=O)c3ccc(N4CCNC(C(F)F)C4)c4cn(C)nc34)cc(F)c2n1 (stereo not drawn) | AC50 | 1 to 10 µM |
| CCNC1CCN(c2ccc(C(=O)Nc3cc(F)c4nn(C)cc4c3)c3nn(C)cc23)CC1 | AC50 | 1 to 10 µM |
| CCNC1CCN(c2ccc(C(=O)Nc3cc(F)c4nc(C)oc4c3)c3nn(C)cc23)CC1 | AC50 | 1 to 10 µM |
| CN[C@H]1CCN(c2c(O)cc(C(=O)Nc3cc(F)c4nc(C)cn4c3)c3nn(C)cc23)C1 | AC50 | > 10 µM |
| Cc1cn2nc(NC(=O)c3ccc(N4CCC(NC5CC5)CC4)c4cn(C)nc34)cc(C)c2n1 | AC50 | 0.1 to 1 µM |
| Cc1cn2cc(NC(=O)c3ccc(N4CCC(NC5CC5(C)C)CC4)c4cn(C)nc34)cc(F)c2n1 (stereo not drawn) | AC50 | 1 to 10 µM |

Dear colleague, could you send me AC50 for each of the items below? Thanks.
1. COc1c(NC(=O)c2c(F)cc(N3CCNCC3)c3cn[nH]c23)cn2cc(C)nc2c1F
2. CN[C@@H]1C[C@@H](C)N(c2ccc(C(=O)Nc3cc(F)c4nc(C)cn4c3)c3nn(C)cc23)C1
3. CN[C@H]1CCN(c2ccc(C(=O)Nc3cc(F)c4nc(C)cn4c3)c3nn(C)nc23)C1
4. CN[C@H]1CCN(c2ccc(C(=O)Nc3cc(F)c4nc(C)cn4c3)c3nn(C)cc23)[C@H]1C (single isomer, unassigned)
5. Cc1cn2cc(NC(=O)c3ccc(N4CCC(NC5CC5C)CC4)c4cn(C)nc34)cc(F)c2n1 (stereo not drawn)

1: 1 to 10 µM; 2: 1 to 10 µM; 3: 0.1 to 1 µM; 4: > 10 µM; 5: 0.1 to 1 µM

Report AC50 for each item below.
1. CCNC1CCN(c2ccc(C(=O)Nc3cn4cc(C)nc(C)c4n3)c3nn(C)cc23)CC1
2. CNC1(C)CCN(c2cc(F)c(C(=O)Nc3cn4cc(C)nc4c(F)c3OC)c3nn(C)cc23)CC1
3. Cc1cn2cc(NC(=O)c3c(F)cc(N4CCNCC4)c4c3CN(C)C4)cc(F)c2n1
4. COC1CC(N[C@H]2CCN(c3ccc(C(=O)Nc4cc(F)c5nc(C)cn5c4)c4nn(C)cc34)C2)C1 (stereo partly drawn)
5. COc1c(NC(=O)c2ccc(N3CCNCC3)c3cc[nH]c23)cn2cc(C)nc2c1F
6. Cc1cn2cc(NC(=O)c3ccc(N4CCC(NC5CC5)CC4)c4cc(C)nn34)cc(F)c2n1
7. Cc1cn2cc(NC(=O)c3ccc(N4CC[C@@H](NCC56CC(CO5)C6)C4)c4cn(C)nc34)cc(F)c2n1
8. Cc1cn2cc(NC(=O)c3c(F)cc(N4CCNCC4)c4occc34)cc(F)c2n1

0.1 to 1 µM
< 0.1 µM
> 10 µM
1 to 10 µM
> 10 µM
0.1 to 1 µM
> 10 µM
> 10 µM
